Target: Thromboxane A2 receptor (Homo sapiens, UniProt P21731)
Sequence (P21731 whole entry): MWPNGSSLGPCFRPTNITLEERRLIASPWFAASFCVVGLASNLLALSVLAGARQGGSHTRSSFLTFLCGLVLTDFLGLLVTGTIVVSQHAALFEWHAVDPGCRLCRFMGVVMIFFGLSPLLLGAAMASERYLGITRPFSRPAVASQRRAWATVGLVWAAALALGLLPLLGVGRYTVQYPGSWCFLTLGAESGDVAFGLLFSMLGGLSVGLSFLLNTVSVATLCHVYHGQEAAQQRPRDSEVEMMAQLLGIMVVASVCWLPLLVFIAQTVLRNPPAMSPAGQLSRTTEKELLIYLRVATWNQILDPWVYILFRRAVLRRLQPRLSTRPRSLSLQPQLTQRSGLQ
pKi: −log10 of the molar value.
readout: pKi

Consider the compound shown here: CC(C)C(=O)N(c1ccccc1)C1CC(C)N(C(=O)c2ccccc2)c2ccccc21 (stereo unspecified) What is its recorded pKi?
< 6.00

====

target: 5-hydroxytryptamine receptor 2A (Rattus norvegicus, UniProt P14842)
Sequence (P14842 whole entry): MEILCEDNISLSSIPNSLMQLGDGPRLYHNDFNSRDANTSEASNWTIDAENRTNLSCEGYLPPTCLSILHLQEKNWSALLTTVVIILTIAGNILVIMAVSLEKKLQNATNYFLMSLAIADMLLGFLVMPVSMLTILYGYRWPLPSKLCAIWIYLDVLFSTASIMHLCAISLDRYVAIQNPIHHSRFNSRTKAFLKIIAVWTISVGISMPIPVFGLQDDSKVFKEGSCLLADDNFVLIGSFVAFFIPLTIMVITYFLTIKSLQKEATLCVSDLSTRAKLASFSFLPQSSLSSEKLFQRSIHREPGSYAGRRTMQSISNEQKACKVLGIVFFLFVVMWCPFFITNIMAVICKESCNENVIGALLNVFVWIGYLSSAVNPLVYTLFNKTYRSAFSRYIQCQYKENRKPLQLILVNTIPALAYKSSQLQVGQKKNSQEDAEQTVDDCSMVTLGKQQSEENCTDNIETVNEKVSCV
pKi: −log10 of the molar value.
readout: pKi

Request: pKi, test system 5-hydroxytryptamine receptor 2A (Rattus norvegicus, UniProt P14842), entry CC(C)C(=O)N(c1ccccc1)C1CC(C)N(C(=O)c2ccccc2)c2ccccc21 (stereo unspecified)
< 6.00

====

Record set of pKi for target or system Prostaglandin D2 receptor (Homo sapiens, UniProt Q13258).
pKi: −log10 of the molar value.

1. CCC(=O)N1c2ccccc2C(N(C(C)=O)c2ccccc2)CC1C (stereo not drawn) [K376] ... < 6.00
2. CC(C)C(=O)N(c1ccccc1)C1CC(C)N(C(=O)c2ccccc2)c2ccccc21 (stereo not drawn) [K117] ... < 6.00

Kindly consider the entry below.
Request: pKi, test system Prostaglandin D2 receptor (Homo sapiens, UniProt Q13258), entry CC1CC(N(C(=O)C2CC2)c2ccccc2)c2ccccc2N1C(=O)c1ccccc1 (stereo not drawn) [K604]
< 6.00

====

Target: Prostaglandin G/H synthase 2 (Homo sapiens, UniProt P35354)
Sequence (P35354 whole entry): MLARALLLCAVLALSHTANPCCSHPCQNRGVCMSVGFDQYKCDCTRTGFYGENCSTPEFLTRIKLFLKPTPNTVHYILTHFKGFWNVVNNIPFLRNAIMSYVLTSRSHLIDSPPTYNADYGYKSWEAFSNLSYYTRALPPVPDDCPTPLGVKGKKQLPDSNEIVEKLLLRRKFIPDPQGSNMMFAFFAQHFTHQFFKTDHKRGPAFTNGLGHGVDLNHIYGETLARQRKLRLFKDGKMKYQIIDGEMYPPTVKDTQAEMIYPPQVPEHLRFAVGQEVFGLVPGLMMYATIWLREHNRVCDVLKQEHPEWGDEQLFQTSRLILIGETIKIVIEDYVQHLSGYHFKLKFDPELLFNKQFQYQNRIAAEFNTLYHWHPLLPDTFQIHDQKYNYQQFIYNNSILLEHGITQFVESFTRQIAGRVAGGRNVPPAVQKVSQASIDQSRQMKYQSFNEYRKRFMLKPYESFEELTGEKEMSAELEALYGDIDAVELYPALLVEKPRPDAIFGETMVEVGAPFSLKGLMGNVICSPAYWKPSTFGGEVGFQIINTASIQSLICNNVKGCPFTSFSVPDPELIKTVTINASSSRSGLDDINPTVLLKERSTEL
pKi: −log10 of the molar value.
# pKi per record follows

1) CC1CC(N(C(=O)C2CC2)c2ccccc2)c2ccccc2N1C(=O)c1ccccc1 (configuration not stated) [K604] ... < 6.00

Kindly consider the entry below.
Consider the compound shown here: CCC(=O)N1c2ccccc2C(N(C(C)=O)c2ccccc2)CC1C (configuration not stated) [K376] What is its recorded pKi?
< 6.00

The measured values listed here are drawn from BindingDB's records for doi:10.1124/jpet.104.081539.
